test system: Heart; experiment: Biodistribution in NMRI mouse heart assessed per gram of tissue at 3.7 MBq/mL, iv after 2 mins by gamma counting; type: ADME, organism-based; conditions: in vivo
assay.metric: Drug uptake (% ID/g)

Oc1ccc2nc(-c3ccc([18F])cc3)sc2c1
5.8
COc1ccc2nc(-c3ccc([18F])cc3)sc2c1
3.9
[11CH3]Nc1ccc(-c2nc3ccc(O)cc3s2)cc1
4.2
Cc1ccc2nc(-c3ccc([18F])cc3)sc2c1
5.4

---

system: Blood; assay: Biodistribution in NMRI mouse blood at 3.7 MBq/mL, iv after 2 mins by gamma counting; assay type: ADME, organism-based; conditions: in vivo
Entries and their Drug uptake values follow.
assay.metric: Drug uptake (%ID)

Cc1ccc2nc(-c3ccc([18F])cc3)sc2c1
5.7
[11CH3]Nc1ccc(-c2nc3ccc(O)cc3s2)cc1 [PITTSBURGH COMPOUND B]
7.9
COc1ccc2nc(-c3ccc([18F])cc3)sc2c1
4.9
Oc1ccc2nc(-c3ccc([18F])cc3)sc2c1
10

---

test: Biodistribution in NMRI mouse spleen/pancreas at 3.7 MBq/mL, iv after 2 mins by gamma counting; assay type: ADME, organism-based; conditions: in vivo
assay.metric: Drug uptake (%ID)

COc1ccc2nc(-c3ccc([18F])cc3)sc2c1
1.3
Cc1ccc2nc(-c3ccc([18F])cc3)sc2c1
1.3
[11CH3]Nc1ccc(-c2nc3ccc(O)cc3s2)cc1 [PITTSBURGH COMPOUND B]
0.6
Oc1ccc2nc(-c3ccc([18F])cc3)sc2c1
1.2

---

tested on: Cerebellum; experiment: Biodistribution in NMRI mouse cerebellum assessed per gram of tissue at 3.7 MBq/mL, iv after 60 mins by gamma counting; type: ADME, organism-based; conditions: in vivo, 1 h
assay.metric: Drug uptake (% ID/g)

Oc1ccc2nc(-c3ccc([18F])cc3)sc2c1
0.76
COc1ccc2nc(-c3ccc([18F])cc3)sc2c1
0.68
Cc1ccc2nc(-c3ccc([18F])cc3)sc2c1
0.39
[11CH3]Nc1ccc(-c2nc3ccc(O)cc3s2)cc1
0.31

---

test system: Stomach; assay: Biodistribution in NMRI mouse stomach at 3.7 MBq/mL, iv after 2 mins by gamma counting; type: ADME, organism-based; details: in vivo
Recorded Drug uptake for the following compounds
assay.metric: Drug uptake

[11CH3]Nc1ccc(-c2nc3ccc(O)cc3s2)cc1 [PITTSBURGH COMPOUND B]
1.1 %ID
Cc1ccc2nc(-c3ccc([18F])cc3)sc2c1
1.3 %ID
Oc1ccc2nc(-c3ccc([18F])cc3)sc2c1
1.1 %ID
COc1ccc2nc(-c3ccc([18F])cc3)sc2c1
1.1 %ID

---

# maps each entry to its Drug uptake
test system: Cerebellum; assay: Biodistribution in NMRI mouse cerebellum at 3.7 MBq/mL, iv after 2 mins by gamma counting; format: ADME, organism-based; details: in vivo
assay.metric: Drug uptake (%ID)

Oc1ccc2nc(-c3ccc([18F])cc3)sc2c1
0.55
[11CH3]Nc1ccc(-c2nc3ccc(O)cc3s2)cc1
0.17
COc1ccc2nc(-c3ccc([18F])cc3)sc2c1
0.56
Cc1ccc2nc(-c3ccc([18F])cc3)sc2c1
0.42

---

test: Biodistribution in NMRI mouse cerebrum at 3.7 MBq/mL, iv after 2 mins by gamma counting; type: ADME, organism-based; settings: in vivo
# Drug uptake per record follows
assay.metric: Drug uptake (%ID)

Cc1ccc2nc(-c3ccc([18F])cc3)sc2c1
1.62
Oc1ccc2nc(-c3ccc([18F])cc3)sc2c1
1.35
COc1ccc2nc(-c3ccc([18F])cc3)sc2c1
1.57
[11CH3]Nc1ccc(-c2nc3ccc(O)cc3s2)cc1 [PITTSBURGH COMPOUND B]
1.08
